- condition_notes: in ethyl acetate, 278.15 K
outcome_measure: solubility (mole fraction)
No unit in the answer, please; the number alone is enough.

Entry CN(C)[C@@H]1C(=O)C(C(N)=O)=C(O)[C@@]2(O)C(=O)C3=C(O)c4c(O)cccc4C[C@H]3C[C@@H]12 needs its solubility (mole fraction) filled in; supply it.
0.00032

###

- condition_notes: in n-hexane, 293.15 K
outcome_measure: solubility (mole fraction)
No unit in the answer, please; the number alone is enough.

Entry CN(C)[C@@H]1C(=O)C(C(N)=O)=C(O)[C@@]2(O)C(=O)C3=C(O)c4c(O)cccc4C[C@H]3C[C@@H]12 needs its solubility (mole fraction) filled in; supply it.
5.06e-05

###

- condition_notes: in ethyl acetate, 298.15 K
outcome_measure: solubility (mole fraction)
No unit in the answer, please; the number alone is enough.

Entry CN(C)[C@@H]1C(=O)C(C(N)=O)=C(O)[C@@]2(O)C(=O)C3=C(O)c4c(O)cccc4C[C@H]3C[C@@H]12 needs its solubility (mole fraction) filled in; supply it.
0.000649

###

- condition_notes: in n-butanol, 313.15 K
outcome_measure: solubility (mole fraction)
No unit in the answer, please; the number alone is enough.

Entry CN(C)[C@@H]1C(=O)C(C(N)=O)=C(O)[C@@]2(O)C(=O)C3=C(O)c4c(O)cccc4C[C@H]3C[C@@H]12 needs its solubility (mole fraction) filled in; supply it.
0.000121

###

- condition_notes: in isopropanol, 288.15 K
outcome_measure: solubility (mole fraction)
No unit in the answer, please; the number alone is enough.

Entry CN(C)[C@@H]1C(=O)C(C(N)=O)=C(O)[C@@]2(O)C(=O)C3=C(O)c4c(O)cccc4C[C@H]3C[C@@H]12 needs its solubility (mole fraction) filled in; supply it.
5.37e-05

###

- condition_notes: in methanol, 288.15 K
outcome_measure: solubility (mole fraction)
No unit in the answer, please; the number alone is enough.

Entry CN(C)[C@@H]1C(=O)C(C(N)=O)=C(O)[C@@]2(O)C(=O)C3=C(O)c4c(O)cccc4C[C@H]3C[C@@H]12 needs its solubility (mole fraction) filled in; supply it.
0.0002

###

- condition_notes: in ethanol, 303.15 K
outcome_measure: solubility (mole fraction)
No unit in the answer, please; the number alone is enough.

Entry CN(C)[C@@H]1C(=O)C(C(N)=O)=C(O)[C@@]2(O)C(=O)C3=C(O)c4c(O)cccc4C[C@H]3C[C@@H]12 needs its solubility (mole fraction) filled in; supply it.
0.000207

###

- condition_notes: in cyclohexane, 303.15 K
outcome_measure: solubility (mole fraction)
No unit in the answer, please; the number alone is enough.

Entry CN(C)[C@@H]1C(=O)C(C(N)=O)=C(O)[C@@]2(O)C(=O)C3=C(O)c4c(O)cccc4C[C@H]3C[C@@H]12 needs its solubility (mole fraction) filled in; supply it.
3.03e-05

###

- condition_notes: in n-propanol, 293.15 K
outcome_measure: solubility (mole fraction)
No unit in the answer, please; the number alone is enough.

Entry CN(C)[C@@H]1C(=O)C(C(N)=O)=C(O)[C@@]2(O)C(=O)C3=C(O)c4c(O)cccc4C[C@H]3C[C@@H]12 needs its solubility (mole fraction) filled in; supply it.
0.00012

###

- condition_notes: in cyclohexane, 293.15 K
outcome_measure: solubility (mole fraction)
No unit in the answer, please; the number alone is enough.

Entry CN(C)[C@@H]1C(=O)C(C(N)=O)=C(O)[C@@]2(O)C(=O)C3=C(O)c4c(O)cccc4C[C@H]3C[C@@H]12 needs its solubility (mole fraction) filled in; supply it.
1.93e-05

###

- condition_notes: in n-butanol, 308.15 K
outcome_measure: solubility (mole fraction)
No unit in the answer, please; the number alone is enough.

Entry CN(C)[C@@H]1C(=O)C(C(N)=O)=C(O)[C@@]2(O)C(=O)C3=C(O)c4c(O)cccc4C[C@H]3C[C@@H]12 needs its solubility (mole fraction) filled in; supply it.
0.000107

###

- condition_notes: in n-octanol, 293.15 K
outcome_measure: solubility (mole fraction)
No unit in the answer, please; the number alone is enough.

Entry CN(C)[C@@H]1C(=O)C(C(N)=O)=C(O)[C@@]2(O)C(=O)C3=C(O)c4c(O)cccc4C[C@H]3C[C@@H]12 needs its solubility (mole fraction) filled in; supply it.
4.48e-05

###

- condition_notes: in n-butanol, 293.15 K
outcome_measure: solubility (mole fraction)
No unit in the answer, please; the number alone is enough.

Entry CN(C)[C@@H]1C(=O)C(C(N)=O)=C(O)[C@@]2(O)C(=O)C3=C(O)c4c(O)cccc4C[C@H]3C[C@@H]12 needs its solubility (mole fraction) filled in; supply it.
7.34e-05

###

- condition_notes: in n-propanol, 298.15 K
outcome_measure: solubility (mole fraction)
No unit in the answer, please; the number alone is enough.

Entry CN(C)[C@@H]1C(=O)C(C(N)=O)=C(O)[C@@]2(O)C(=O)C3=C(O)c4c(O)cccc4C[C@H]3C[C@@H]12 needs its solubility (mole fraction) filled in; supply it.
0.000128

###

- condition_notes: in acetonitrile, 288.15 K
outcome_measure: solubility (mole fraction)
No unit in the answer, please; the number alone is enough.

Entry CN(C)[C@@H]1C(=O)C(C(N)=O)=C(O)[C@@]2(O)C(=O)C3=C(O)c4c(O)cccc4C[C@H]3C[C@@H]12 needs its solubility (mole fraction) filled in; supply it.
0.000143

###

- condition_notes: in ethyl acetate, 308.15 K
outcome_measure: solubility (mole fraction)
No unit in the answer, please; the number alone is enough.

Entry CN(C)[C@@H]1C(=O)C(C(N)=O)=C(O)[C@@]2(O)C(=O)C3=C(O)c4c(O)cccc4C[C@H]3C[C@@H]12 needs its solubility (mole fraction) filled in; supply it.
0.000882

###

- condition_notes: in isopropanol, 283.15 K
outcome_measure: solubility (mole fraction)

Entry CN(C)[C@@H]1C(=O)C(C(N)=O)=C(O)[C@@]2(O)C(=O)C3=C(O)c4c(O)cccc4C[C@H]3C[C@@H]12 needs its solubility (mole fraction) filled in; supply it.
4.65e-05

###

- condition_notes: in acetonitrile, 283.15 K
outcome_measure: solubility (mole fraction)
No unit in the answer, please; the number alone is enough.

Entry CN(C)[C@@H]1C(=O)C(C(N)=O)=C(O)[C@@]2(O)C(=O)C3=C(O)c4c(O)cccc4C[C@H]3C[C@@H]12 needs its solubility (mole fraction) filled in; supply it.
0.00013

###

- condition_notes: in ethyl acetate, 318.15 K
outcome_measure: solubility (mole fraction)

Entry CN(C)[C@@H]1C(=O)C(C(N)=O)=C(O)[C@@]2(O)C(=O)C3=C(O)c4c(O)cccc4C[C@H]3C[C@@H]12 needs its solubility (mole fraction) filled in; supply it.
0.00119

###

- condition_notes: in n-propanol, 283.15 K
outcome_measure: solubility (mole fraction)
No unit in the answer, please; the number alone is enough.

Entry CN(C)[C@@H]1C(=O)C(C(N)=O)=C(O)[C@@]2(O)C(=O)C3=C(O)c4c(O)cccc4C[C@H]3C[C@@H]12 needs its solubility (mole fraction) filled in; supply it.
0.000106

###

- condition_notes: in cyclohexane, 283.15 K
outcome_measure: solubility (mole fraction)
No unit in the answer, please; the number alone is enough.

Entry CN(C)[C@@H]1C(=O)C(C(N)=O)=C(O)[C@@]2(O)C(=O)C3=C(O)c4c(O)cccc4C[C@H]3C[C@@H]12 needs its solubility (mole fraction) filled in; supply it.
1.05e-05

###

- condition_notes: in ethyl acetate, 283.15 K
outcome_measure: solubility (mole fraction)
No unit in the answer, please; the number alone is enough.

Entry CN(C)[C@@H]1C(=O)C(C(N)=O)=C(O)[C@@]2(O)C(=O)C3=C(O)c4c(O)cccc4C[C@H]3C[C@@H]12 needs its solubility (mole fraction) filled in; supply it.
0.000392

###

- condition_notes: in isobutanol, 288.15 K
outcome_measure: solubility (mole fraction)
No unit in the answer, please; the number alone is enough.

Entry CN(C)[C@@H]1C(=O)C(C(N)=O)=C(O)[C@@]2(O)C(=O)C3=C(O)c4c(O)cccc4C[C@H]3C[C@@H]12 needs its solubility (mole fraction) filled in; supply it.
4.9e-05

###

- condition_notes: in cyclohexane, 308.15 K
outcome_measure: solubility (mole fraction)
No unit in the answer, please; the number alone is enough.

Entry CN(C)[C@@H]1C(=O)C(C(N)=O)=C(O)[C@@]2(O)C(=O)C3=C(O)c4c(O)cccc4C[C@H]3C[C@@H]12 needs its solubility (mole fraction) filled in; supply it.
3.85e-05

###

- condition_notes: in methanol, 313.15 K
outcome_measure: solubility (mole fraction)
No unit in the answer, please; the number alone is enough.

Entry CN(C)[C@@H]1C(=O)C(C(N)=O)=C(O)[C@@]2(O)C(=O)C3=C(O)c4c(O)cccc4C[C@H]3C[C@@H]12 needs its solubility (mole fraction) filled in; supply it.
0.000306
